target: BChE (Homo sapiens); conditions: 0.5 mM; mean ± SEM, triplicate
Sequence (P06276 29-602, species assumed): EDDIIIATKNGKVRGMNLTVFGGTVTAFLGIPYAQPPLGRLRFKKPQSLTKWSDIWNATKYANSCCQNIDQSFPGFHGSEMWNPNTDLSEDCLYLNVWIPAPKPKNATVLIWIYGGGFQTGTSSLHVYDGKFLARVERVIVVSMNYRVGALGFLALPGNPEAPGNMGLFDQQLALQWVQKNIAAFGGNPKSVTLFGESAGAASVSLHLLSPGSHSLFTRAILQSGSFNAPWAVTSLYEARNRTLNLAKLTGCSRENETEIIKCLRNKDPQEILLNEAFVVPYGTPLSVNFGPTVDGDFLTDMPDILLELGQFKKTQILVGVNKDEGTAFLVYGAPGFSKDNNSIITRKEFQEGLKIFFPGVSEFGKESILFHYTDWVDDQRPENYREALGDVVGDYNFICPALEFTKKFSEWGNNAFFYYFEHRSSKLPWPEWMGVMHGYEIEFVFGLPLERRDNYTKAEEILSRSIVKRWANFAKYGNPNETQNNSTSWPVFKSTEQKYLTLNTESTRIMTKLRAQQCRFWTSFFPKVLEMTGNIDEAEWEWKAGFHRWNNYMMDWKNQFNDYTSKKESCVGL
Quantity kind: BChE inhibition, inhibition (%) at 0.5 mM
Write the number in % without appending the unit.

As a guide, the following entries are already answered.
| Compound | Val |
| --- | --- |
| Cc1ccc(S(=O)(=O)N2CCC(c3nnc(SCC(=O)Nc4cc(C)ccc4C)n3C)CC2)cc1 [Compound 12k] | 49.23 |
| Cc1ccc(S(=O)(=O)N2CCC(c3nnc(SCC(=O)Nc4ccccc4C)n3C)CC2)cc1 [Compound 12c] | 37.83 |

Let's switch to this compound now.
Item Cc1ccc(S(=O)(=O)N2CCC(c3nnc(SCC(=O)Nc4c(C)cccc4[N+](=O)[O-])n3C)CC2)cc1 [Compound 12o] has what recorded BChE inhibition, inhibition (%) at 0.5 mM?
39.65

Just for reference, paper PMC9476189 is where these values come from.
